Target: T1, TGFβ1 (R&D Systems)
T1 construct: also called TGFB1
T1 sequence (P01137 279-390): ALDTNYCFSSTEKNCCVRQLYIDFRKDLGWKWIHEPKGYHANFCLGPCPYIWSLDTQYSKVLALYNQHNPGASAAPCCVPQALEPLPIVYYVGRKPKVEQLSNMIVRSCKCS
Test: SPR full titration
OBSERVABLE: Kd (nM)
Number in nM, nothing else.

Requested read-out: Kd. Entry: Can-SL501-VH3 Q110K / Can-SL501-VL2 (antibody, V domains shown) VH: EVQLVESGGDLVKPGGSLRLSCVASGFTFSSYGMHWVRQAPGKELEWVAVISYDGSIKYYADAVKGRFTISRDNAKNTLYLQMNSLRAEDTAVYYCARTGEYSGYDTDPKYSWGQGTTVTVSS VL: EIVMTQSPGSLAGSAGESVSINCRASQGIGDDLGWYQQKPGERPKLLIYGTSTLQSGVPARFSSSGSGTDFTLTINNLQAEDVGDYYCLQDSNYPLTFGAGTK
0.111
